# assay target: human RIP1 kinase domain (2-375) (Homo sapiens (Human), UniProt Q13546)
# Sequence (Q13546 2-375): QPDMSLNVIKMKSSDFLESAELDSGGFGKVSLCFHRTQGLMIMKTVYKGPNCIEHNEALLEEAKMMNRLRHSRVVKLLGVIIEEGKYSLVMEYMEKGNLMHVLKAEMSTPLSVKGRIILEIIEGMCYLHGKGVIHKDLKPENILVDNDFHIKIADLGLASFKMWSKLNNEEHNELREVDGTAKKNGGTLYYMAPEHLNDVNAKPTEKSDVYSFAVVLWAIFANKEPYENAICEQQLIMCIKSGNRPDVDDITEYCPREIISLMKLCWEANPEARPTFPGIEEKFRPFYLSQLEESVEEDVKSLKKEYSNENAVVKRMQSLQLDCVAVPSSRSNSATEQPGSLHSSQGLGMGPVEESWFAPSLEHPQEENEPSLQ
# experiment notes: biochemical
# Format: biochemical
# condition summary: tight-binding apparent inhibition constant; human RIP1 kinase domain (2-375) 50 nM, 50 uM ATP, 2 hours; read-out: Ki
measured metric: Ki

Find the recorded Ki belonging to Cc1cc2n(n1)CC[C@H](NC(=O)c1ncc3c(n1)[C@](C)(CC(F)(F)F)OC3)C(=O)N2C (racemic) [Example 689] and report it. 176 nM

Thanks! And O=C(N[C@H]1COc2cc(F)cc(F)c2NC1=O)c1nc2n(n1)[C@H](C(F)(F)F)CC2 [Example 348] ? 13.8 nM

Thanks! And Cc1cc2n(n1)CC[C@H](NC(=O)c1nc3n(n1)[C@@H](c1ccccc1F)CC3)C(=O)N2C [Example 666] ? 40 nM

Thanks! And Cc1ncc2n1CC[C@@H](NC(=O)c1ncn(Cc3c(F)cccc3F)n1)C(=O)N2C [Example 578] ? 40 nM

---

# assay target: human RIP1 kinase domain (2-375) (Homo sapiens (Human), UniProt Q13546)
# experiment notes: biochemical
# Assay type: biochemical
# condition summary: tight-binding apparent inhibition constant; human RIP1 kinase domain (2-375) 50 nM, 50 uM ATP, 2 hours; read-out: Ki
measured metric: pKi
Note on units: pKi is unitless, being -log10 of a concentration expressed in mol/L.

Find the recorded pKi belonging to CN1C(=O)[C@@H](NC(=O)c2nc3cccc(-c4ccccc4F)n3n2)CCn2nccc21 and report it. 7.83

Thanks! And CC(C)[C@@H]1CCCc2nc(C(=O)N[C@H]3CCc4cc(F)cc(F)c4NC3=O)nn21 (single isomer, unassigned) ? 7.69

Thanks! And CN1C(=O)[C@@H](NC(=O)c2nc3cccc(-c4ccccc4)c3s2)CCn2nccc21 ? 7.02

Thanks! And O=C(N[C@H]1COc2cc(F)cc(F)c2NC1=O)c1nc2n(n1)CCC2c1ccccc1 (stereo in doubt) [Example 626] ? 7.85

---

# assay target: human RIP1 kinase domain (2-375) (Homo sapiens (Human), UniProt Q13546)
# experiment notes: biochemical
# Format: biochemical
# condition summary: tight-binding apparent inhibition constant; human RIP1 kinase domain (2-375) 50 nM, 50 uM ATP, 2 hours; read-out: Ki
For each record, write down the corresponding pKi.
Note on units: pKi is unitless, being -log10 of a concentration expressed in mol/L.

Find the recorded pKi belonging to CN1C(=O)[C@@H](NC(=O)c2ncn(Cc3ccccc3)n2)CCn2nc(CC3CC3)cc21 [Example 459] and report it. 8.15

Thanks! And CN1C(=O)[C@@H](NC(=O)c2nc3cccc(-c4ccccc4)c3s2)COc2ccccc21 [Example 391] ? 7.18

Thanks! And CCC[C@@H]1CCCc2nc(C(=O)N[C@H]3COc4ccccc4N(C)C3=O)nn21 (racemic) [Example 416] ? 8.33

Thanks! And CCC[C@H]1CCCc2nc(C(=O)N[C@H]3COc4cc(C)cc(F)c4NC3=O)nn21 (single isomer, unassigned) [Example 439] ? 8.18

---

# assay target: human RIP1 kinase domain (2-375) (Homo sapiens (Human))
# experiment notes: biochemical
# Format: biochemical
# condition summary: human RIP1 kinase domain (2-375), Transcreener ADP assay, 50 uM ATP, 2 hours incubation; read-out: RIP1 Ki
For each record, write down the corresponding Ki.
Value expressed in nM; do not type the unit.

Find the recorded Ki belonging to Cc1nn2c(c1C)N(C)C(=O)[C@@H](NC(=O)c1nnc(Cc3ccccc3)[nH]1)CC2 and report it. 50.4

Thanks! And CC[C@@]1(C)OCc2cnc(C(=O)N[C@@H]3CCn4nc([C@H]5CC5(F)F)cc4N(C)C3=O)cc21 ? 1290

Thanks! And CN1C(=O)[C@@H](NC(=O)c2ncn(Cc3ccc(Cl)cc3Cl)n2)CCn2nc(C3CC3)cc21 ? 8.5

Thanks! And CN1C(=O)C(NC(=O)c2ncn(CC3CCOCC3)n2)CCn2nc(C3CC3)cc21 (stereo not shown) ? 2200

---

# assay target: human RIP1 kinase domain (2-375) (Homo sapiens (Human))
# experiment notes: biochemical
# Type: biochemical
# condition summary: tight-binding apparent inhibition constant; human RIP1 kinase domain (2-375) 50 nM, 50 uM ATP, 2 hours; read-out: Ki
Criterion: Ki strictly less than 70 nM. Met: fulfilled. Not met: not fulfilled.

Please determine if CN1C(=O)[C@@H](NC(=O)c2nc3n(n2)C(c2cc(F)ccc2F)CCC3)CCn2nccc21 (some centres unmarked) [Example 388] is below 70 nM in terms of Ki. not fulfilled

Thanks! And CC(C)[C@@H]1CCCc2nc(C(=O)N[C@H]3COc4cc(F)cc(F)c4NC3=O)nn21 (single isomer, unassigned) [Example 444] ? fulfilled

Thanks! And Cc1cc2n(n1)CC[C@H](NC(=O)c1nc3n(n1)[C@@H](c1ccccc1)CC3)C(=O)N2C [Example 615] ? fulfilled

Thanks! And Cc1cc2n(n1)CC[C@H](NC(=O)c1ncn(Cc3ncccc3F)n1)C(=O)N2C [Example 654] ? not fulfilled

Thanks! And CN1C(=O)[C@@H](NC(=O)c2ncn(Cc3ccccn3)n2)CCn2nc(C3CC3)cc21 [Example 652] ? not fulfilled

Thanks! And CN1C(=O)[C@@H](NC(=O)c2ncn(Cc3ccccc3C#N)n2)CCn2nc(C3CC3)cc21 [Example 593] ? not fulfilled

Thanks! And CN1C(=O)[C@@H](NC(=O)c2nc3n(n2)CCCC3c2ccccc2)COc2ccccc21 (some centres unmarked) [Example 553] ? fulfilled

---

For each record, write down the corresponding Ki.
# assay target: human RIP1 kinase domain (2-375) (Homo sapiens (Human), UniProt Q13546)
# experiment notes: biochemical
# Assay type: biochemical
# condition summary: tight-binding apparent inhibition constant; human RIP1 kinase domain (2-375) 50 nM, 50 uM ATP, 2 hours; read-out: Ki

Find the recorded Ki belonging to CN1C(=O)[C@@H](NC(=O)c2ncc3c(n2)C2(CCOC2)OC3)COc2ccccc21 (some centres unmarked) [Example 508] and report it. 90 nM

Thanks! And Cc1cc(F)c2c(c1)OC[C@H](NC(=O)c1nc3n(n1)CCO[C@@H]3c1ccccc1)C(=O)N2 [Example 643] ? 360 nM

Thanks! And CCC(C)(O)c1ccnc(C(=O)N[C@H]2COc3ccccc3N(C)C2=O)c1 (some centres unmarked) [Example 488] ? 1800 nM

Thanks! And Cc1cc2n(n1)CC[C@H](NC(=O)c1ncc3c(n1)C1(CCCOC1)OC3)C(=O)N2C (some centres unmarked) [Example 544] ? 1200 nM

Thanks! And O=C(N[C@H]1CCc2cc(F)cc(F)c2NC1=O)c1nc2n(n1)CCO[C@H]2c1ccccc1 [Example 638] ? 38 nM

Thanks! And CN1C(=O)[C@@H](NC(=O)c2ncn(Cc3ccccc3)n2)CCn2nc(C[C@H]3CC3(F)F)cc21 [Example 547] ? 8.5 nM

Thanks! And CC(C)Oc1cc2n(n1)CCC(NC(=O)c1ncn(Cc3ccccc3)n1)C(=O)N2C (centres unmarked) [Example 461] ? 50 nM

Thanks! And CN1C(=O)[C@@H](NC(=O)c2nccc(C3(O)CCC3)n2)COc2ccccc21 [Example 537] ? 2100 nM

---

# assay target: human RIP1 kinase domain (2-375) (Homo sapiens (Human))
# experiment notes: biochemical
# Assay type: biochemical
# condition summary: tight-binding apparent inhibition constant; human RIP1 kinase domain (2-375) 50 nM, 50 uM ATP, 2 hours; read-out: Ki
measured metric: pKi
Note on units: pKi is unitless, being -log10 of a concentration expressed in mol/L.

Find the recorded pKi belonging to CC(C)c1cccc2nc(C(=O)N[C@H]3COc4ccccc4N(C)C3=O)nn12 and report it. 8.33

Thanks! And Cc1cc2n(n1)CC[C@H](NC(=O)c1ncn(CC3CC(C)C3)n1)C(=O)N2C (stereo in doubt) ? 7.43

Thanks! And CC[C@H]1CCCc2nc(C(=O)N[C@H]3COc4ccccc4N(C)C3=O)nn21 (racemic) ? 7.09

Thanks! And CC(C)[C@H]1CCCc2nc(C(=O)N[C@H]3COc4ccccc4N(C)C3=O)nn21 (single isomer, unassigned) ? 6.64

Thanks! And CN1C(=O)[C@@H](NC(=O)c2ncn(CC3CCC(F)(F)C3)n2)CCn2nc(C3CC3)cc21 (stereo partly shown) ? 6.38

Thanks! And C[C@H](c1ccc(F)cc1)n1cnc(C(=O)N[C@H]2CCn3nc(C4CC4)cc3N(C)C2=O)n1 (racemic) ? 5.51

Thanks! And Cc1ncc2n1CCC(NC(=O)c1ncn(Cc3ccccc3)n1)C(=O)N2C (racemic) ? 6.89

---

# assay target: human RIP1 kinase domain (2-375) (Homo sapiens (Human))
# experiment notes: biochemical
# Assay type: biochemical
# condition summary: tight-binding apparent inhibition constant; human RIP1 kinase domain (2-375) 50 nM, 50 uM ATP, 2 hours; read-out: Ki
measured metric: Ki (nM)
Value expressed in nM; do not type the unit.

Find the recorded Ki belonging to CCC1CCc2nc(C(=O)N[C@H]3COc4cc(C)cc(F)c4NC3=O)nn21 (stereo partly drawn) and report it. 33.5

Thanks! And CN1C(=O)[C@@H](NC(=O)c2nnc(Cc3ccccc3)[nH]2)CCn2nc3c(c21)CS(=O)(=O)C3 ? 301

Thanks! And CCC[C@@H]1CCCc2nc(C(=O)N[C@H]3COc4cc(F)cc(F)c4NC3=O)nn21 (single isomer, unassigned) ? 3.47

Thanks! And CN1C(=O)[C@@H](NC(=O)c2nc3n(n2)[C@H](c2c(F)cccc2F)CCC3)CCn2nccc21 (racemic) ? 834

Thanks! And CC[C@H]1C[C@H](Cn2cnc(C(=O)N[C@H]3CCn4nccc4N(C)C3=O)n2)C1 ? 23

Thanks! And CN1C(=O)[C@@H](NC(=O)c2ncc3n2CC(CC(F)(F)F)CC3)COc2ccccc21 (stereo partly drawn) ? 1000

Thanks! And O=C(N[C@H]1CCc2cc(F)cc(F)c2NC1=O)c1nc2n(n1)[C@@H](C(F)(F)F)CCC2 (single isomer, unassigned) ? 213

Thanks! And CN1C(=O)[C@@H](NC(=O)c2ncn(C[C@H]3C[C@H](C)C3)n2)CCn2nccc21 ? 41

Thanks! And CC(C)[C@@H]1CCc2nc(C(=O)N[C@H]3CCn4nccc4N(C)C3=O)nn21 (single isomer, unassigned) ? 49.8

Thanks! And CN1C(=O)[C@@H](NC(=O)c2ncn(C[C@H]3C[C@@H](C(F)(F)F)C3)n2)CCn2nccc21 ? 92

Thanks! And Cc1cn2c(n1)N(C)C(=O)[C@H](NC(=O)c1ncn(Cc3cc(F)ccc3F)n1)CC2 ? 57

Thanks! And C[C@@H](c1ccc(F)cc1)n1cnc(C(=O)N[C@H]2CCn3nc(C4CC4)cc3N(C)C2=O)n1 (racemic) ? 26.6

Thanks! And Cc1cc(F)c2c(c1)OC[C@H](NC(=O)c1nc3n(n1)CCO[C@H]3c1ccccc1)C(=O)N2 ? 12

Thanks! And CN1C(=O)[C@@H](NC(=O)c2ncn(Cc3c(F)cccc3F)n2)CCn2nccc21 ? 9.73

Thanks! And CN1C(=O)[C@@H](NC(=O)c2ncn(Cc3ncccc3F)n2)CCn2nccc21 ? 110
